Could you please report measured normalized RNA/DNA level without ligand (log10) for the items listed next?
B1: library; a variant is named by its letters at N, in order (parent)
chain: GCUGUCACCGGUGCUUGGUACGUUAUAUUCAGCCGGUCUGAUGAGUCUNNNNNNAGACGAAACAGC

Variants of: B1
Assay: normalized RNA/DNA level without ligand (relative to sTRSVctl = 100) (log10 (% of sTRSVctl)); HEK293T overexpressing SLC46A1; higher = less ribozyme self-cleavage, higher mRNA level
Conditions: without (6R,S)-folinic acid; ligand present: no
One number for each entry.

Solved entries (count: 5):
[
  {
    "mutant-label": "ACGCAG",
    "reported-value": 1.93
  },
  {
    "mutant-label": "GACUAU",
    "reported-value": 2
  },
  {
    "mutant-label": "AUCGAG",
    "reported-value": 1.81
  },
  {
    "mutant-label": "AACACG",
    "reported-value": 1.94
  },
  {
    "mutant-label": "UCUGUG",
    "reported-value": 1.77
  }
]

Hi! Can you tell me normalized RNA/DNA level without ligand (log10) for each of these variants?
1. UCAACG
2. CAUUUU
3. UCUAUC

Completion:
[1.91, 1.98, 2.07]

Hi! Can you tell me normalized RNA/DNA level without ligand (log10) for each of these variants?
1. GUAAAC
2. CCCUAG
3. ACCAAC
4. UGAGCA
5. AUUGUA
6. GCGCGG

Completion:
1. 1.97
2. 2.02
3. 2.03
4. 1.95
5. 1.94
6. 2.06

Hi! Can you tell me normalized RNA/DNA level without ligand (log10) for each of these variants?
1. GGUCAG
2. UGCGAG
3. AGAACU

Completion:
2.04
1.71
2.04

Hi! Can you tell me normalized RNA/DNA level without ligand (log10) for each of these variants?
1. UUCCGA
2. UCGACC
3. ACGGAC
4. UCAUCC
5. AUUAGU
6. GCGAUG
7. ACAUAU

Completion:
[2, 2.05, 2.02, 2.07, 1.95, 1.96, 1.94]
